B1: LINE1-full (parent)
chain: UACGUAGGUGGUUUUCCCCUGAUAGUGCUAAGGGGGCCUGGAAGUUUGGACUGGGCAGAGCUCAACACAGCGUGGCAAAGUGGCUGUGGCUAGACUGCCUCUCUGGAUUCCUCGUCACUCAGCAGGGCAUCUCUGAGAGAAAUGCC

- Variants of: B1
- MEASUREMENT PROTOCOL: self-cleavage, relative activity (ratio to wild type); higher = more cleavage; in vitro, sequencing; the parent is a self-cleaving ribozyme
Form field: self-cleavage (one value per entry).
Note: the reply should be a number with no unit written.

{"MUTATION ID": "G105A U130C", "self-cleavage": 0.96}

Task: # self-cleavage lookup, item A6U C71U
Result: 1.15

Task: # self-cleavage lookup, item A30G A129G
Result: 0.72

Task: # self-cleavage lookup, item A2G G55A
Result: 0.2

Task: # self-cleavage lookup, item U13C A121G
Result: 1.52

Task: # self-cleavage lookup, item U20C U132C
Result: 1.23

Task: # self-cleavage lookup, item G60A C111U
Result: 0.04
